Biological target: T1, RON-Fc (human RON Sema, PSI and IPT1 domains, E25-M682, Fc fusion with human IgG1) (human, UniProt Q04912-1 25-682)
T1 construct: human RON (Recepteur d'Origine Nantais, MST1R), Sema, PSI and IPT1 domains, E25-M682; also called RON-Fc fusion protein; source: CHO cells; purified (MabSelect Sure, SEC)
T1 sequence (looked up): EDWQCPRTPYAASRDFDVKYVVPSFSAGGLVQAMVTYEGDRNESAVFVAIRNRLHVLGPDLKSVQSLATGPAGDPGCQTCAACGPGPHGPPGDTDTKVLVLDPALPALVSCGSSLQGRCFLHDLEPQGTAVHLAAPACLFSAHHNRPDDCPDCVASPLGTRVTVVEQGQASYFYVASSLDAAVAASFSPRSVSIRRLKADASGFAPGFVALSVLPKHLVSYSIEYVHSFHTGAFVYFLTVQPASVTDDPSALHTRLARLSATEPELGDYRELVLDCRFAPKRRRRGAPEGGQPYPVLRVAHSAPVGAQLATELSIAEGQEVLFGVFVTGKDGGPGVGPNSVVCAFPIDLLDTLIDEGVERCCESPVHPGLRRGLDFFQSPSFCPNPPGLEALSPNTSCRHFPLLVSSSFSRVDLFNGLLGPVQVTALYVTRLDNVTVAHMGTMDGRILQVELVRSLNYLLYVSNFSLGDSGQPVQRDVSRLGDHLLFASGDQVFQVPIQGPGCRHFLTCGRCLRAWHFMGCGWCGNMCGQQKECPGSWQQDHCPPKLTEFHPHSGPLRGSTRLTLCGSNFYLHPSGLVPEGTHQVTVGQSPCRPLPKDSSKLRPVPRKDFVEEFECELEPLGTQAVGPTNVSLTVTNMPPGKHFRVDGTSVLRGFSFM
Assay: SPR; RON-Fc captured (50-100 RU) on immobilised anti-human Fc surfaces, CM5 chip, Biacore 3000; MSP, MSP β or scMSP injected 500-3.9 nM in HBS-P (10 mM HEPES pH 7.5, 150 mM NaCl, 0.005% P20), 25°C, 30 µl/min; global 1:1 Langmuir fit, KD = koff/kon
Settings: both partners purified
measurement-label: kon (M⁻¹ s⁻¹)
Reply with just the number (in M⁻¹ s⁻¹).

binder	measured
MSP β 689R (V484-G711; C588S, C672A) (domain or fragment, human, UniProt P26927 484-711, looked up, source: CHO cells, transiently transfected, secreted; purified (Ni-NTA, SEC); not shown: His6, C-terminal, kept) VVGGHPGNSPWTVSLRNRQGQHFCGGSLVKEQWILTARQCFSSCHMPLTGYEVWLGTLFQNPQHGEPSLQRVPVAKMVCGPSGSQLVLLKLERSVTLNQRVALISLPPEWYVVPPGTKCEIAGWGETKGTGNDTVLNVALLNVISNQECNIKHRGRVRESEMCTEGLLAPVGACEGDYGGPLACFTHNAWVLEGIIIPNRVCARSRWPAVFTRVSVFVDWIHKVMRLG	1.81e+06
MSP β 689C (V484-G711; C588S, C672A; 689C) (domain or fragment, human, UniProt P26927 484-711, looked up, source: CHO cells, transiently transfected, secreted; purified (Ni-NTA, SEC); not shown: His6, C-terminal, kept) VVGGHPGNSPWTVSLRNRQGQHFCGGSLVKEQWILTARQCFSSCHMPLTGYEVWLGTLFQNPQHGEPSLQRVPVAKMVCGPSGSQLVLLKLERSVTLNQRVALISLPPEWYVVPPGTKCEIAGWGETKGTGNDTVLNVALLNVISNQECNIKHRGRVRESEMCTEGLLAPVGACEGDYGGPLACFTHNAWVLEGIIIPNRVCARSCWPAVFTRVSVFVDWIHKVMRLG	4.42e+06
MSP β 672C 689C (V484-G711; C588S, without C672A; 689C) (domain or fragment, human, UniProt P26927 484-711, looked up, source: CHO cells, transiently transfected, secreted; purified (Ni-NTA, SEC)) VVGGHPGNSPWTVSLRNRQGQHFCGGSLVKEQWILTARQCFSSCHMPLTGYEVWLGTLFQNPQHGEPSLQRVPVAKMVCGPSGSQLVLLKLERSVTLNQRVALISLPPEWYVVPPGTKCEIAGWGETKGTGNDTVLNVALLNVISNQECNIKHRGRVRESEMCTEGLLAPVGACEGDYGGPLACFTHNCWVLEGIIIPNRVCARSCWPAVFTRVSVFVDWIHKVMRLG	770000

# context switch: different binder, same kon
[ask] Need kon, item MSP β 672C 689R (V484-G711; C588S, without C672A) (domain or fragment, human, UniProt P26927 484-711, looked up, source: CHO cells, transiently transfected, secreted; purified (Ni-NTA, SEC)) VVGGHPGNSPWTVSLRNRQGQHFCGGSLVKEQWILTARQCFSSCHMPLTGYEVWLGTLFQNPQHGEPSLQRVPVAKMVCGPSGSQLVLLKLERSVTLNQRVALISLPPEWYVVPPGTKCEIAGWGETKGTGNDTVLNVALLNVISNQECNIKHRGRVRESEMCTEGLLAPVGACEGDYGGPLACFTHNCWVLEGIIIPNRVCARSRWPAVFTRVSVFVDWIHKVMRLG
[reply] 860000

meta.source: paper PMC3884107
